molecular target: C. elegans Slo-1a (Caenorhabditis elegans); test: Agonistic activity at C. elegans Slo-1a, FLIPR membrane potential in CHO K1 cells; details: EC50 agonistic activity at C. elegans Slo-1a, CHO K1 cells stably transfected with slo-1a, membrane potential dye
Sequence (Q95V25 whole entry): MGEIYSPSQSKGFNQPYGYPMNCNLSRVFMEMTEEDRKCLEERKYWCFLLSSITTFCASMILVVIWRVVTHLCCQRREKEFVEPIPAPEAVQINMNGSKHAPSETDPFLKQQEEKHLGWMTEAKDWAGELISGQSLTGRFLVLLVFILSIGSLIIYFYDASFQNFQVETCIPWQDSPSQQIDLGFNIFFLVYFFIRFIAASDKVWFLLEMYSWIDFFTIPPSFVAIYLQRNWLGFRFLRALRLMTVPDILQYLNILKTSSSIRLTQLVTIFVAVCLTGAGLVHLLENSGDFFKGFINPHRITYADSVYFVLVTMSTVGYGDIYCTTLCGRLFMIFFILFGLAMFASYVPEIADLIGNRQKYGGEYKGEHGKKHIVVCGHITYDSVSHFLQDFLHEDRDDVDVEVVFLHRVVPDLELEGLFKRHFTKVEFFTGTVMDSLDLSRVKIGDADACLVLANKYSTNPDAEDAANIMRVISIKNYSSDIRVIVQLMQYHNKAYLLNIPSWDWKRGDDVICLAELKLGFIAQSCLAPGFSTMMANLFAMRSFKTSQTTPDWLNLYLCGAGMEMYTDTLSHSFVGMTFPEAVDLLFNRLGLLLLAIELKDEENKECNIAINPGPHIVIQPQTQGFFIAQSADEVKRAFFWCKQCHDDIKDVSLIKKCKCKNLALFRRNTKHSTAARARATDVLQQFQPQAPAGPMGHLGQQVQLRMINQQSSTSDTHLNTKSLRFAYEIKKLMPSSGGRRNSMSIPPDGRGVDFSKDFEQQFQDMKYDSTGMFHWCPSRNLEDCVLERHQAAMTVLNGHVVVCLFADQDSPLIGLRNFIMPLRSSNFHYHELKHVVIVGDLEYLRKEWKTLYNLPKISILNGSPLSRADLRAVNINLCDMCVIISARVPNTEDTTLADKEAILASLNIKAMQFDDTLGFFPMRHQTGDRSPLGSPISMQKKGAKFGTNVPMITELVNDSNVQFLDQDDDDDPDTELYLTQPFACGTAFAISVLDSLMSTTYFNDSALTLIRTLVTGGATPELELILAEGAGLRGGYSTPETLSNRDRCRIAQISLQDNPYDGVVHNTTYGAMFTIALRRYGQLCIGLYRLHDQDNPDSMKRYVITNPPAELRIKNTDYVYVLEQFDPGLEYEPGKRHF
Let's look at some compounds and their measured EC50.
READOUT_KIND: EC50

- CSc1cc(Oc2cc(Cl)cc(Cl)c2)ncc1C(=O)N[C@H]1CCCc2ccccc21: < 10 µM
- CN(C)c1cc(Sc2cc(Cl)cc(Cl)c2)ncc1C(=O)N[C@H]1CCc2ccccc21: < 1 µM
- CN(C)c1cc(Nc2cc(Cl)cc(Cl)c2)ncc1C(=O)N[C@H]1CCc2ccccc21: < 10 µM
- CCOc1cc(Sc2cccc(Cl)c2Cl)ncc1C(=O)N[C@H]1CCc2ccccc21: < 10 µM
- CSc1cc(Sc2cccc(Cl)c2Cl)ncc1C(=O)N[C@H]1CCc2ccccc21: < 10 µM
- CCOc1cc(Sc2cccc(Cl)c2Cl)ncc1C(=O)N[C@H]1CCOc2ccccc21: < 10 µM
- CN(C)c1cc([S+]([O-])c2cc(Cl)cc(Cl)c2)ncc1C(=O)N[C@H]1CCOc2ccccc21 (stereo partly drawn): < 10 µM
- CSc1cc(Sc2cc(Cl)cc(Cl)c2)ncc1C(=O)N[C@H]1CCc2ccccc21: < 10 µM
- O=C(N[C@H]1CCOc2ccccc21)c1cnc(Oc2cc(Cl)cc(Cl)c2)cc1N1CCOCC1: < 1 µM
- CN(C)c1cc(Sc2cccc(Cl)c2Cl)ncc1C(=O)N[C@H]1CCc2ccccc21: < 1 µM
- CN(C)c1cc(Nc2cc(Cl)cc(Cl)c2)ncc1C(=O)N[C@H]1CCOc2ccccc21: < 10 µM
- O=C(N[C@H]1CCc2ccccc21)c1cnc(Sc2cc(Cl)cc(Cl)c2)cc1N1CCOCC1: < 1 µM
- O=C(N[C@H]1CCOc2ccccc21)c1cnc(Nc2cc(Cl)cc(Cl)c2)cc1N1CCOCC1: < 10 µM
- CN(C)c1cc(Sc2cccc(Cl)c2Cl)ncc1C(=O)N[C@H]1CCOc2ccccc21: < 1 µM
- CN(C)c1cc(Sc2cccc(Cl)c2Cl)ncc1C(=O)N[C@H]1CCCc2ccccc21: < 1 µM
- O=C(N[C@H]1CCc2ccccc21)c1cnc(Oc2cccc(Cl)c2Cl)cc1N1CCOCC1: < 1 µM
- COc1cc(Sc2cc(Cl)cc(Cl)c2)ncc1C(=O)N[C@H]1CCc2ccccc21: < 10 µM
- O=C(N[C@H]1CCc2ccccc21)c1cnc(Cc2cc(Cl)cc(Cl)c2)cc1N1CCOCC1: < 10 µM
- O=C(N[C@H]1CCOc2ccccc21)c1cnc(Cc2cc(Cl)cc(Cl)c2)cc1N1CCOCC1: < 10 µM
- CN(C)c1cc(Sc2cc(Cl)cc(Cl)c2)ncc1C(=O)N[C@H]1CCCc2ccccc21: < 10 µM
- CN(C)c1cc(S(=O)(=O)c2cc(Cl)cc(Cl)c2)ncc1C(=O)N[C@H]1CCOc2ccccc21: < 10 µM
- CN(C)c1cc(Oc2cc(Cl)cc(Cl)c2)ncc1C(=O)N[C@H]1CCc2ccccc21: < 1 µM
- CN(C)c1cc(Nc2cc(Cl)cc(Cl)c2)ncc1C(=O)N[C@H]1CCCc2ccccc21: < 10 µM
- CN(C)c1cc(Oc2cccc(Cl)c2Cl)ncc1C(=O)N[C@H]1CCc2ccccc21: < 1 µM
- O=C(N[C@H]1CCCc2ccccc21)c1cnc(Cc2cc(Cl)cc(Cl)c2)cc1N1CCOCC1: < 10 µM
- CSc1cc(Sc2cc(Cl)cc(Cl)c2)ncc1C(=O)N[C@H]1CCCc2ccccc21: < 10 µM
- CCOc1cc(Sc2cc(Cl)cc(Cl)c2)ncc1C(=O)N[C@H]1CCOc2ccccc21: < 10 µM
- O=C(N[C@H]1CCCc2ccccc21)c1cnc(Sc2cccc(Cl)c2Cl)cc1N1CCOCC1: < 1 µM
- O=C(N[C@H]1CCCc2ccccc21)c1cnc(Nc2cc(Cl)cc(Cl)c2)cc1N1CCOCC1: < 10 µM
- COc1cc(Sc2cc(Cl)cc(Cl)c2)ncc1C(=O)N[C@H]1CCCc2ccccc21: < 10 µM
- O=C(N[C@H]1CCCc2ccccc21)c1cnc(Oc2cc(Cl)cc(Cl)c2)cc1N1CCOCC1: < 1 µM
- O=C(N[C@H]1CCOc2ccccc21)c1cnc(Oc2cccc(Cl)c2Cl)cc1N1CCOCC1: < 1 µM
- CSc1cc(Sc2cccc(Cl)c2Cl)ncc1C(=O)N[C@H]1CCCc2ccccc21: < 10 µM

Values compiled from patent US12692233B2.
